- system under test: T1, TauC3 (C-terminally truncated tau fragment ending at aspartate 421 of htau40) (human, UniProt P10636 1-738)
- T1 construct: Generated and purified by Genscript; also called Human TauC3; recombinant TauC3 protein
- T1 sequence (P10636 other isoform, or with tags, fused parts or gaps): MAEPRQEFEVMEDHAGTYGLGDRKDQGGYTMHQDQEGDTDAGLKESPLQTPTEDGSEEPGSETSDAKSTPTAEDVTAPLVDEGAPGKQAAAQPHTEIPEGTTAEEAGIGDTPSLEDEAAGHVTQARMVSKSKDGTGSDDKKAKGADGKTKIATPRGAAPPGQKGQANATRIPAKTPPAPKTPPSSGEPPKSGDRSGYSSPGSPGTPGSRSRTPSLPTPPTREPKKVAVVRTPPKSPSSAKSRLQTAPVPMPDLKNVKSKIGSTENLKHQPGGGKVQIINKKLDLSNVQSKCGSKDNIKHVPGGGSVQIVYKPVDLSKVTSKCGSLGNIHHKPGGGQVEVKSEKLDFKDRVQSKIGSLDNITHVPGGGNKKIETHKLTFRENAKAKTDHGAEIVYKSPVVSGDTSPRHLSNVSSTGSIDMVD
- assay method text: SPR (Biacore) kinetics, TauC3 amine-coupled on CM5, 1:1 global fit
property name: kon (M⁻¹ s⁻¹)
Quick note: give the figure in M⁻¹ s⁻¹, leave out the unit.

A selection of reference data follows.
Tau01 HMKO HuG4k (antibody, V domains shown, human IgG4 kappa (HuG4K)) VH: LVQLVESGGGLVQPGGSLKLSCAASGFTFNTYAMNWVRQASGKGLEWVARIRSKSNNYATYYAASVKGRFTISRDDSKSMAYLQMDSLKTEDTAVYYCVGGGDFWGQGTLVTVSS VL: DIQMTQSPSSLSASVGDRVTITCRASQEISVYLGWYQQKPGKAPKRLIYGAFSLQSGVPSRFSGSRSGTEYTLTISSLQPEDFATYYCLQYVRYPWTFGGGTKVEIK    5.93e+07
Tau01 HMKP HuG4k (antibody, V domains shown, human IgG4 kappa (HuG4K); Lead candidate) VH: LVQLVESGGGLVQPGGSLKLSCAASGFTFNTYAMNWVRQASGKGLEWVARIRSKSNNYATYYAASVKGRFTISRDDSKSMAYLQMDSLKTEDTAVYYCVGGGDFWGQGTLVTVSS VL: DIQMTQSPSSLSASVGDRVTITCRASQEISVYLGWFQQKPGKAPKRLIYGAFKLQSGVPSRFSGSRSGTEYTLTISSLQPEDFATYYCLQYVRYPWTFGGGTKVEIK    1.43e+08

Now, please, on to the next binder.
The recorded kon for entry Tau01 HMKN HuG4k (antibody, V domains shown, human IgG4 kappa (HuG4K)) VH: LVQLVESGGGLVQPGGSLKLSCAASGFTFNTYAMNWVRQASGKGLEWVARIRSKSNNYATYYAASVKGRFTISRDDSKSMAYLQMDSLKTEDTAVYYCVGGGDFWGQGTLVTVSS VL: DIQMTQSPSSLSASVGDRVTITCRASQEISVYLGWYQQKPGKAPKRLIYGAFTLQSGVPSRFSGSRSGTEYTLTISSLQPEDFATYYCLQYVRYPWTFGGGTKVEIK equals 6.03e+07
